Please respond with reported Particle Size for every item in the list.
- Assay Explanation: Delivery vehicle size and polydispersity by dynamic light scattering
- Assay type: physicochemical
- Stated Conditions: formulation recipe O5
Non-standard residues stand in square brackets, D forms with d. Residues, ends and D or L forms follow the SMILES beside them. *: point of attachment. Gly(N-(3-decanoyloxypropyl)) = CCCCCCCCCC(=O)OCCCNCC(=O)O; N(3-lauroyloxypropyl)Gly = CCCCCCCCCCCC(=O)OCCCNCC(=O)O; N(2-decanoyloxyethyl)Gly = CCCCCCCCCC(=O)OCCNCC(=O)O; Gly(N-3-morpholinopropyl) = O=C(O)CNCCCN1CCOCC1; N(2-ethylhexyl)Gly = CCCCC(CC)CNCC(=O)O; N(CH(CH2OH)2)Gly = O=C(O)CNC(CO)CO; N(octyl)Gly = CCCCCCCCNCC(=O)O; NDecylGly = CCCCCCCCCCNCC(=O)O; For = O=C*
Numbers only, in nm.

The examples below pair each entry with its known result.
1) CCCCCCCCCCCC(=O)OCCCN(CC(=O)N(CC(=O)N(CC(=O)N(CCCOC(=O)CCCCCCCCCCC)CC(=O)N(CC(=O)N(CC(N)=O)CC(CC)CCCC)CC(CC)CCCC)CC(CC)CCCC)CC(CC)CCCC)C(=O)CNC(CO)CO (centres unmarked) [Compound 51] (H-[N(CH(CH2OH)2)Gly][N(3-lauroyloxypropyl)Gly][N(2-ethylhexyl)Gly][N(2-ethylhexyl)Gly][N(3-lauroyloxypropyl)Gly][N(2-ethylhexyl)Gly][N(2-ethylhexyl)Gly]-NH2)
58.4
2) CCCCCCCCCCCC(=O)OCCCN(CC(=O)N(CC(=O)N(CCCN1CCOCC1)CC(=O)N(CC(=O)N(CCCOC(=O)CCCCCCCCCCC)CC(=O)N(CC(N)=O)CC(CC)CCCC)CC(CC)CCCC)CC(CC)CCCC)C(=O)CN(C=O)CC(CC)CCCC (centres unmarked) [Compound 80] (For-[N(2-ethylhexyl)Gly][N(3-lauroyloxypropyl)Gly][N(2-ethylhexyl)Gly][Gly(N-3-morpholinopropyl)][N(2-ethylhexyl)Gly][N(3-lauroyloxypropyl)Gly][N(2-ethylhexyl)Gly]-NH2)
68.5
3) CCCCCCCCCCN(CC(=O)N(CC(=O)N(CCCOC(=O)CCCCCCCCC)CC(N)=O)CC(CC)CCCC)C(=O)CN(CC(CC)CCCC)C(=O)CN(CCCOC(=O)CCCCCCCCC)C(=O)CN(CC(CC)CCCC)C(=O)CNC(CO)CO (centres unmarked) [Compound 58] (H-[N(CH(CH2OH)2)Gly][N(2-ethylhexyl)Gly][Gly(N-(3-decanoyloxypropyl))][N(2-ethylhexyl)Gly][NDecylGly][N(2-ethylhexyl)Gly][Gly(N-(3-decanoyloxypropyl))]-NH2)
56.3
4) CCCCCCCCCC(=O)OCCN(CC(N)=O)C(=O)CN(CC(CC)CCCC)C(=O)CN(CCOC(=O)CCCCCCCCC)C(=O)CN(CCOC(=O)CCCCCCCCC)C(=O)CN(CC(CC)CCCC)C(=O)CN(CCOC(=O)CCCCCCCCC)C(=O)CNC(CO)CO (centres unmarked) [Compound 56] (H-[N(CH(CH2OH)2)Gly][N(2-decanoyloxyethyl)Gly][N(2-ethylhexyl)Gly][N(2-decanoyloxyethyl)Gly][N(2-decanoyloxyethyl)Gly][N(2-ethylhexyl)Gly][N(2-decanoyloxyethyl)Gly]-NH2)
62.4

The record that follows has no Particle Size shown yet.
Query (compound): CCCCCCCCCCCC(=O)OCCCN(CC(=O)N(CC(N)=O)CC(CC)CCCC)C(=O)CN(CCCCCCCC)C(=O)CN(CC(CC)CCCC)C(=O)CN(CCCOC(=O)CCCCCCCCCCC)C(=O)CN(CCCCCCCC)C(=O)CN(C=O)CCCN1CCOCC1 (centres unmarked) [Compound 74] (For-[Gly(N-3-morpholinopropyl)][N(octyl)Gly][N(3-lauroyloxypropyl)Gly][N(2-ethylhexyl)Gly][N(octyl)Gly][N(3-lauroyloxypropyl)Gly][N(2-ethylhexyl)Gly]-NH2) ; field requested: Particle Size
70.1
